Exercise: for every item that follows, state its recorded IC50.
- study system: HBV core protein (C-terminal truncated, 149 aa assembly domain) (Hepatitis B virus genotype D subtype adw, UniProt P03147, C107A/C48A/C61A)
- Construct: The C-terminal truncated core protein containing 149 amino acids of the N-terminal assembly domain; made in house; host or cells: E. coli BL21 (DE3) Rosetta2, plasmid pET21b
- Sequence (P03147 1-150, looked up, stated change not applied): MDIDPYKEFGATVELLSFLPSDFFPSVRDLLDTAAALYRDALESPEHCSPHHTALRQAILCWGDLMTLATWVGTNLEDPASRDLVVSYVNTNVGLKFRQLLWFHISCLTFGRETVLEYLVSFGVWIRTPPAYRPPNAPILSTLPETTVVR
- method: Biochemical capsid assembly assay (fluorescence quenching)
- run parameters: BODIPY-FL labelled core protein, assembly started with NaCl, read after 6 min; read-out: Assembly Activity

Any idea what IC50 was measured for Cc1cccn2cc(C(=O)N3Cc4c(-c5cscn5)n[nH]c4CC3C)cc12 (centres unmarked) ? < 5 µM

Recorded IC50 for CC1Cc2n[nH]c(C(=O)NC(C)C(F)(F)F)c2CN1C(=O)c1cc2ccccn2c1 (centres unmarked) , please? < 100 µM

State the recorded IC50 for this entry: "CC(C)(NC(=O)c1[nH]nc2c1CN(C(=O)c1cc3ccccn3c1)CC2)C(F)(F)F" < 100 µM

Field request: IC50 | item: "CN(C(=O)c1cnn2c1CN(C(=O)c1cc3c(F)cc(F)cn3c1)CC2)C1(COC(F)F)CC1" < 5 µM

Please look up its IC50: CC1Cc2[nH]nc(-c3cscn3)c2CN1C(=O)c1cc2cccc(Cl)n2c1 (centres unmarked) 5 to 10 µM

Need IC50 of "CN(C(=O)c1cnn2c1CN(C(=O)c1cc3cccc(Cl)n3c1)CC2)C1(COC(F)F)CC1" , thanks. < 5 µM

Look up IC50: CC1Cc2[nH]nc(-c3cscn3)c2CN1C(=O)c1cc2cccc(C(F)(F)F)n2c1 (centres unmarked) < 100 µM

What IC50 value was documented for this compound, CC1Cc2[nH]nc(-c3cscn3)c2CN1C(=O)c1cc2cc(Cl)ccn2c1 (centres unmarked) ? 5 to 10 µM
